B1: Azoarcus group I ribozyme (parent)
chain: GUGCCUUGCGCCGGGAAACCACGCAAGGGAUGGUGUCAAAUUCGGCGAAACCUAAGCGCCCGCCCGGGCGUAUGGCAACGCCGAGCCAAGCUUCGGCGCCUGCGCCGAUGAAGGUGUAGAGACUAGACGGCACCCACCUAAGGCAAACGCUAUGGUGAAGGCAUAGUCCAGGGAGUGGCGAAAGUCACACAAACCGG

Variants of: B1
assay.info: reverse-splicing fitness (ratio to wild type); higher = more active; in vitro selection; Mg2+ level not given
observed.property: reverse-splicing fitness

mutation_name="C82A A120U A145U C150U C169G U176C" result=0.00288
mutation_name="C82A A111G A120U A145G C169G U176G" result=0.00191
mutation_name="C82U A111U A120G A145C C150U C169U" result=0.00734

Hi there! I need reverse-splicing fitness for each item below, if you can.
1. C82G A111G A120C A145G C150U
2. A111C A120C C150A C169U U176G

Result:
0.0625
0.00635
